# credit: patent US20260116991A1

target: biotinylated labeled human GPC3 protein (produced in-house) (human, UniProt P51654 25-559, limits assumed, biotinylated (Dojindo, Cat. No. LK03); sites not stated); experiment: ELISA, biotinylated human GPC3 protein
attributeMeasured: OD450 at 2.67 nM (OD450)

[
  {
    "binder": "hAb007LH3L1 (antibody, human IgG1, V domains shown, Humanized F3.81.19; VH H3 + VL L1; expressed as human IgG1) VH: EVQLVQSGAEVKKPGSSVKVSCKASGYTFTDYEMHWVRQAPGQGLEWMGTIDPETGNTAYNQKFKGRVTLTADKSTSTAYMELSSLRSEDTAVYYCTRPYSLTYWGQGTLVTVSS VL: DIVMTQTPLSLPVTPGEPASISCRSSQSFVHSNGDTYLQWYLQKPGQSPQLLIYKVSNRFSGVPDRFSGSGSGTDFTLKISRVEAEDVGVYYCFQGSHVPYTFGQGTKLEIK",
    "measured": 2.11
  },
  {
    "binder": "hAb003LH2L1b (antibody, human IgG1, V domains shown, Humanized F2.154.1; VH H2 + VL L1b; expressed as human IgG1) VH: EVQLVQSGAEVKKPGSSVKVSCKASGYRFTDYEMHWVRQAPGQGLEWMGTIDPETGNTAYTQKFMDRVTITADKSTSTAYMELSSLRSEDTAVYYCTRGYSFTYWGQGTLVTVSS VL: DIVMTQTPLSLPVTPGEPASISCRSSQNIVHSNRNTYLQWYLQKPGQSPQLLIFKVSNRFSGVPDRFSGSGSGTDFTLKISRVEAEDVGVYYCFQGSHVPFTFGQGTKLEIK",
    "measured": 2.39
  },
  {
    "binder": "hAb001H1L1 (antibody, human IgG1, V domains shown, Humanized F2.169.2; VH H1 + VL L1; expressed as human IgG1) VH: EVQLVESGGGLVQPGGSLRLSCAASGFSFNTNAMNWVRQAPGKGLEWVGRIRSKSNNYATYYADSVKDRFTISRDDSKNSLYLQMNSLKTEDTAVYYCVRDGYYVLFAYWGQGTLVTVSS VL: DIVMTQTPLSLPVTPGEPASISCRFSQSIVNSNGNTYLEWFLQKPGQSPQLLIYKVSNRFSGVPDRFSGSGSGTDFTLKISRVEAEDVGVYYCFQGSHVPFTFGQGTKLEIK",
    "measured": 2.67
  }
]
